The values you see were collected from patent US8865716B2.

System: Aβ42
protocol.notes: Aβ42 production in H4 neuroglioma cells stably expressing human APP695 (Meso Scale Discovery electrochemiluminescence assay)
Format: cell-based
condition.notes: higher ratio = more specific inhibition of Aβ42 over Aβ total
outcome.measure: Ratio Aβ(total)/Aβ42 (Aβ total IC50/Aβ42 IC50)

COc1cc(Nc2ncc3c(n2)N(C)C2(CCOCC2)C(=O)N3c2cc(F)cc(F)c2)ccc1-n1cnc(C)c1 [Example 37c] | 75
COc1cc(Nc2ncc3c(n2)N(C)C2(CC2)C(=O)N3CC(F)F)ccc1-n1cnc(C)c1 [Example 52] | 61
COCCN1c2nc(Nc3ccc(-c4cnc(C)o4)c(OC)c3)nc(CC(C)C)c2N(C)C(=O)C12CCOC2 (stereo not drawn) [Example 31] | 47
CCc1nc(Nc2cnc(-n3cnc(C)c3)c(OC)c2)nc2c1N(C)C(=O)C1(CC1)N2C [Example 37i] | 54

I: COc1cc(Nc2ncc3c(n2)N(C)C2(CCOCC2)C(=O)N3c2ccc(F)cc2)ccc1-n1cnc(C)c1 [Example 37f]
II: COc1cc(Nc2ncc3c(n2)N(C)C2(CCOC2)C(=O)N3c2ccc(C(F)(F)F)cn2)ccc1-n1cnc(C)c1 (stereo not drawn) [Example 48]
*Q* Which shows the larger Ratio Aβ(total)/Aβ42 (Aβ total IC50/Aβ42 IC50) value: I or II ? Lab note: record the label of whichever item you select.
*A* I
(I: 55, II: 22)

----------
System: Aβ42
protocol.notes: Aβ42 production in H4 neuroglioma cells stably expressing human APP695 (Meso Scale Discovery electrochemiluminescence assay)
Assay type: cell-based
condition.notes: higher ratio = more specific inhibition of Aβ42 over Aβ total
outcome.measure: Ratio Aβ(total)/Aβ42 (Aβ total IC50/Aβ42 IC50)

Check out these entries, answers already filled in.
Cc1ncc(-c2ccc(Nc3ncc4c(n3)N(C)C3(CCOCC3)C(=O)N4C)cn2)o1 | >6
COc1cc(Nc2ncc3c(n2)N(C)C2(CC2)C(=O)N3CC(F)(F)F)cnc1-n1cnc(C)c1 | >147

*Q* Ratio Aβ(total)/Aβ42 (Aβ total IC50/Aβ42 IC50) lookup needed for Cc1ncc(-c2ccc(Nc3ncc4c(n3)N(C)C3(CCOC3)C(=O)N4C)cn2)o1 (stereo not drawn) , thanks.
*A* >10

----------
Test system: Aβ42
protocol.notes: Aβ42 production in H4 neuroglioma cells stably expressing human APP695 (Meso Scale Discovery electrochemiluminescence assay)
Format: cell-based
condition.notes: higher ratio = more specific inhibition of Aβ42 over Aβ total
outcome.measure: Ratio Aβ(total)/Aβ42 (Aβ total IC50/Aβ42 IC50)

Check out these entries, answers already filled in.
COc1cc(Nc2ncc3c(n2)N(C)C2(CCOC2)C(=O)N3CC2CCOCC2)ccc1-n1cnc(C)c1 (centres unmarked) | 46
COCCN1C(=O)C2(CCOCC2)N(C)c2nc(Nc3ccc(-c4ccnc(C)c4)cc3)ncc21 | 11
COc1cc(Nc2ncc3c(n2)N(C)C2(COCCOC2)C(=O)N3)ccc1-n1cnc(C)c1 | 91

P: COc1cc(Nc2ncc3c(n2)N(C)C2(CCCCOC2)C(=O)N3C)ccc1-n1cnc(C)c1 (centres unmarked)
Q: COc1cc(Nc2ncc3c(n2)N(C)C2(CCOCC2)C(=O)N3Cc2ccc(F)cc2F)ccc1-n1cnc(C)c1 [Example 37j]
*Q* Which shows the larger Ratio Aβ(total)/Aβ42 (Aβ total IC50/Aβ42 IC50) value: P or Q ? Lab note: record the label of whichever item you select.
*A* P
(P: 91, Q: 57)
